assay: WST-1 cytotoxicity test, Jurkat; assay type: cell-based; settings: human, Jurkat cells, 10 µM, 48 h, WST-1, mean ± SD of three experiments, read-out: relative viability (%) compared to untreated control
property: viability at 48 h, 10 µM

compound | obs value
Cl.Cl.Cl.OCCN1CCN(CCCNc2ccccc2)CC1 | 98%
COc1ccc2nc3c(c(NCCN4CCNCC4)c2c1)CCCC3.Cl.Cl.Cl | 31%
OCCN1CCN(CC(O)CN2CCN(CCO)CC2)CC1 | 103%
Cl.Cl.Cl.OCCN1CCN(CCCNc2cccc3ccccc23)CC1 | 101%
Cl.Cl.OC(CNc1ccccc1)CNc1ccccc1 | 104%
COc1ccc(NCCCN2CCN(CCO)CC2)cc1.Cl.Cl.Cl | 100%
Cc1cc(OCC(O)CN2CCN(CCO)CC2)ccc1Cl.Cl.Cl (stereo not drawn) | 105%
COc1ccc2nc3c(c(NCCN4CCN(CCO)CC4)c2c1)CCCC3.Cl.Cl.Cl | 95%
Cl.Cl.Cl.OCCN1CCN(CC(O)CNc2ccccc2)CC1 (stereo not drawn) | 108%

---

assay: WST-1 cytotoxicity test, A2780; assay type: cell-based; details: human, A2780 cells; A2780, 10 µM, 48 h, WST-1, mean ± SD of three experiments; read-out: relative viability (%) compared to untreated control
Measured viability at 48 h, 10 µM of individual entries
property: viability at 48 h, 10 µM (%)

compound | property | unit tag | obs value
COc1ccc2nc3c(c(NCCN4CCN(CCO)CC4)c2c1)CCCC3.Cl.Cl.Cl [Compound 3] | viability at 48 h, 10 µM | % | 84
Cl.Cl.Cl.OCCN1CCN(CCCNc2cccc3ccccc23)CC1 [Compound 6] | viability at 48 h, 10 µM | % | 74
COc1ccc2nc3c(c(NCCN4CCNCC4)c2c1)CCCC3.Cl.Cl.Cl [Compound 2] | viability at 48 h, 10 µM | % | 44
Cl.Cl.Cl.OCCN1CCN(CCCNc2ccccc2)CC1 [Compound 5] | viability at 48 h, 10 µM | % | 93
OCCN1CCN(CC(O)CN2CCN(CCO)CC2)CC1 [Compound 8] | viability at 48 h, 10 µM | % | 104
COc1ccc(NCCCN2CCN(CCO)CC2)cc1.Cl.Cl.Cl [Compound 7] | viability at 48 h, 10 µM | % | 94
Cl.Cl.OC(CNc1ccccc1)CNc1ccccc1 [Compound 9] | viability at 48 h, 10 µM | % | 90
Cc1cc(OCC(O)CN2CCN(CCO)CC2)ccc1Cl.Cl.Cl (stereo not drawn) [Compound 4] | viability at 48 h, 10 µM | % | 98
Cl.Cl.Cl.OCCN1CCN(CC(O)CNc2ccccc2)CC1 (stereo not drawn) [Compound 10] | viability at 48 h, 10 µM | % | 103

---

Measured viability at 48 h, 100 µM, listed per entry.
test: WST-1 cytotoxicity test, HT-29; type: cell-based; settings: human, HT-29 cells; HT-29, 100 µM, 48 h, WST-1, mean ± SD of three experiments; read-out: relative viability (%) compared to untreated control

molecule | unit tag | viability at 48 h, 100 µM
Cl.Cl.Cl.OCCN1CCN(CC(O)CNc2ccccc2)CC1 (centres unmarked) [Compound 10] | % | 113
Cl.Cl.OC(CNc1ccccc1)CNc1ccccc1 [Compound 9] | % | 148
OCCN1CCN(CC(O)CN2CCN(CCO)CC2)CC1 [Compound 8] | % | 154
Cl.Cl.Cl.OCCN1CCN(CCCNc2ccccc2)CC1 [Compound 5] | % | 109
Cl.Cl.Cl.OCCN1CCN(CCCNc2cccc3ccccc23)CC1 [Compound 6] | % | 97
COc1ccc2nc3c(c(NCCN4CCN(CCO)CC4)c2c1)CCCC3.Cl.Cl.Cl [Compound 3] | % | 14
Cc1cc(OCC(O)CN2CCN(CCO)CC2)ccc1Cl.Cl.Cl (centres unmarked) [Compound 4] | % | 83
COc1ccc(NCCCN2CCN(CCO)CC2)cc1.Cl.Cl.Cl [Compound 7] | % | 118
